FYI, the data here is from the supplement of paper PMC10307832.

# System: NCI-H358
# MEASUREMENT NOTES: relative viability (nuclei count vs DMSO), 5 days (fraction); higher = more cells survive
# DETAILS: first compound 0.01 µM
MEASURED PARAMETER: relative viability

MOLECULE: O=c1cc(N2CCOCC2)oc2c(-c3cccc4c3sc3ccccc34)cccc12 + COc1cc2c(Oc3ccc(NC(=O)C4(C(=O)Nc5ccc(F)cc5)CC4)cc3F)ccnc2cc1OCCCN1CCOCC1 [Foretinib] (partner 0.25 µM)
MEASURED PARAMETER: relative viability
MEASUREMENT: 0.647

MOLECULE: CCN(CC)CCCCNc1ncc2cc(-c3cc(OC)cc(OC)c3)c(NC(=O)NC(C)(C)C)nc2n1 + Nc1nc2[nH]cc(CCc3ccc(C(=O)N[C@@H](CCC(=O)O)C(=O)O)cc3)c2c(=O)[nH]1 [Pemetrexed] (partner 0.2 µM)
MEASURED PARAMETER: relative viability
MEASUREMENT: 0.163

---

# Test system: HCC-827
# MEASUREMENT NOTES: relative viability (nuclei count vs DMSO), 5 days (fraction); higher = more cells survive
# DETAILS: first compound 0.01 µM
This section presents compounds with their documented relative viability values.

COMPOUND: O=c1cc(N2CCOCC2)oc2c(-c3cccc4c3sc3ccccc34)cccc12 + O=C(c1cc(Cc2n[nH]c(=O)c3ccccc23)ccc1F)N1CCN(C(=O)C2CC2)CC1 [Olaparib] (partner 8 µM)
relative viability: 0.695
//
COMPOUND: O=c1cc(N2CCOCC2)oc2c(-c3cccc4c3sc3ccccc34)cccc12 + CS(=O)(=O)N1CCN(Cc2cc3nc(-c4cccc5[nH]ncc45)nc(N4CCOCC4)c3s2)CC1 [Pictilisib] (partner 1 µM)
relative viability: 1.04
//
COMPOUND: O=c1cc(N2CCOCC2)oc2c(-c3cccc4c3sc3ccccc34)cccc12 + CCNC(=O)c1noc(-c2cc(C(C)C)c(O)cc2O)c1-c1ccc(CN2CCOCC2)cc1 [Luminespib] (partner 0.01 µM)
relative viability: 0.642

---

# Test system: NCI-H1395
# MEASUREMENT NOTES: relative viability (nuclei count vs DMSO), 5 days (fraction); higher = more cells survive
# DETAILS: first compound 0.6325 µM

COMPOUND: COCC1(CO)C(=O)C2CCN1CC2 (configuration not stated) [PRIMA-1MET] + CC1(C)CCC(c2ccc(Cl)cc2)=C(CN2CCN(c3ccc(C(=O)NS(=O)(=O)c4ccc(N[C@H](CCN5CCOCC5)CSc5ccccc5)c(S(=O)(=O)C(F)(F)F)c4)cc3)CC2)C1 [Navitoclax] (partner 0.5 µM)
relative viability: 1.49

COMPOUND: COCC1(CO)C(=O)C2CCN1CC2 (configuration not stated) [PRIMA-1MET] + CS(=O)(=O)CCNCc1ccc(-c2ccc3ncnc(Nc4ccc(OCc5cccc(F)c5)c(Cl)c4)c3c2)o1 [Lapatinib] (partner 2 µM)
relative viability: 0.701

---

# Tested on: NCI-H322M
# MEASUREMENT NOTES: relative viability (nuclei count vs DMSO), 5 days (fraction); higher = more cells survive
# DETAILS: first compound 0.6325 µM
This section presents molecules with their documented relative viability values.

MOLECULE: COCC1(CO)C(=O)C2CCN1CC2 (centres undefined) [PRIMA-1MET] + CCNC(=O)c1noc(-c2cc(C(C)C)c(O)cc2O)c1-c1ccc(CN2CCOCC2)cc1 [Luminespib] (partner 0.01 µM)
relative viability: 0.809
--
MOLECULE: COCC1(CO)C(=O)C2CCN1CC2 (centres undefined) [PRIMA-1MET] + O=C(c1cc(Cc2n[nH]c(=O)c3ccccc23)ccc1F)N1CCN(C(=O)C2CC2)CC1 [Olaparib] (partner 8 µM)
relative viability: 0.668
--
MOLECULE: COCC1(CO)C(=O)C2CCN1CC2 (centres undefined) [PRIMA-1MET] + Nc1nc2[nH]cc(CCc3ccc(C(=O)N[C@@H](CCC(=O)O)C(=O)O)cc3)c2c(=O)[nH]1 [Pemetrexed] (partner 0.2 µM)
relative viability: 0.562
--
MOLECULE: COCC1(CO)C(=O)C2CCN1CC2 (centres undefined) [PRIMA-1MET] + CC(=O)Nc1cccc(-n2c(=O)n(C3CC3)c(=O)c3c(Nc4ccc(I)cc4F)n(C)c(=O)c(C)c32)c1 [Trametinib] (partner 0.02 µM)
relative viability: 0.467
